methodSummary: Metabolic stability in human liver microsomes
Type: in vitro ADME
reportedConditions: human liver microsomes 0.5 mg/mL, 1 μM test compound, pH 7.4; read-out: Human LM Clint
Protocol: 4) Metabolic Stability in Human/Mouse Liver Microsomes The objective of this study is to measure in vitro metabolic stability of test compound(s) in human and mouse liver microsomes and provide quantitative information on the rate of metabolic turnover (i.e. determination of the apparent intrinsic clearance of test). Test items were prepared at a stock concentration of 10 mM in DMSO. […] The in vitro half-life (in vitro tin) was determined from the slope value: in vitro t1/2=−(0.693/k) […]
Counter-ions that a name gives are not always drawn.

{"columns": ["compound", "prefixOperator", "microsomal CLint at 1 μM (µL/min/mg)"],
 "data": [
  ["CCN(C(=O)c1cc(F)ccc1Oc1nnccc1N1CCC2(C1)CN([C@H](CCCN(C)CCOC)C(C)C)C2)C(C)C (single isomer, unassigned)", "=", 539],
  ["CCN(C(=O)c1cc(F)ccc1Oc1nncnc1N1CCC2(C1)CN([C@H](CCCN)C(C)C)C2)C(C)C [Compound 1, formate]", "<", 7.5],
  ["CC(C)[C@@H](CCC(C)(C)N)N1CC2(CCN(c3ncnnc3Oc3ccc(F)cc3-c3cncnc3C3CC3)C2)C1 (single isomer, unassigned)", "<", 7.5],
  ["CCN(C(=O)c1cc(F)ccc1Oc1nncnc1N1CCC2(C1)CN([C@H](CCCNCCC(F)F)C(C)C)C2)C(C)C.O=C(O)/C=C/C(=O)O", "=", 26],
  ["CCN(C(=O)c1cc(F)ccc1Oc1nncnc1N1CCC2(C1)CN([C@H](CCCN(C)CCNC(C)=O)C(C)C)C2)C(C)C.O=C(O)/C=C/C(=O)O [Compound 245, fumarate]", "=", 18],
  ["CCN(C)C[C@H](O)C[C@H](C(C)C)N1CC2(CCN(c3ncnnc3Oc3ccc(F)cc3C(=O)N(CC)C(C)C)C2)C1.O=C(O)/C=C/C(=O)O (single isomer, unassigned)", "=", 11],
  ["CCN(C(=O)c1cc(F)ccc1Oc1nncnc1N1CCC2(C1)CN([C@H](CCCN(C)C(COC)COC)C(C)C)C2)C(C)C [Compound 161, fumarate]", "=", 70]
]}

---

testTarget: menin/MLL (terbium chelate-labeled menin, FITC-MBM1 peptide) (Homo sapiens (Human), UniProt O00255)
Sequence (O00255 other isoform, or with tags, fused parts or gaps): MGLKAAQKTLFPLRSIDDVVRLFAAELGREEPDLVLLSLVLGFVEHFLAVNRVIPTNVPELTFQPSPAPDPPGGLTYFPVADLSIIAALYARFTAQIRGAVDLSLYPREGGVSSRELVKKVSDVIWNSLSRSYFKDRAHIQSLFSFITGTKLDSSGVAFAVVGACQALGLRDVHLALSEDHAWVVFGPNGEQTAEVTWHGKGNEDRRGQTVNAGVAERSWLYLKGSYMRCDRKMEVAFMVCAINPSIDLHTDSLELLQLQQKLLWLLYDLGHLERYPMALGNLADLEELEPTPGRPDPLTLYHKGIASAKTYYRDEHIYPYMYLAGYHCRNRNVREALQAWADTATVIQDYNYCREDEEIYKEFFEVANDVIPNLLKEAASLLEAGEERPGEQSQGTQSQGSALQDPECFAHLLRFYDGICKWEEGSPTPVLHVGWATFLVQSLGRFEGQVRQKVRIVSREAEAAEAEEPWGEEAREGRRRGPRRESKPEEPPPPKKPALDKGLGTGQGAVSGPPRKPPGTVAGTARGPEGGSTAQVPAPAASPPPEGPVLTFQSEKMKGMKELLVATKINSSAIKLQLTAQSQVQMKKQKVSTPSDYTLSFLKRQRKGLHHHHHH
methodSummary: Menin/MLL homogenous time-resolved fluorescence (HTRF) assay
Type: binding
reportedConditions: HTRF-30 min incubation IC50, 30 min incubation
pIC50: −log10 of the molar value. Counter-ions that a name gives are not always drawn.

{"columns": ["compound", "pIC50"],
 "data": [
  ["CCN(C(=O)c1cc(F)ccc1Oc1nncnc1N1CCC2(C1)CN([C@H](CCCN(C)C[C@H](C)C(=O)NC)C(C)C)C2)C(C)C [Compound 197, fumarate]", 9.52],
  ["CC(C)[C@@H](C[C@@H](O)CN(C)C)N1CC2(CCN(c3ncnnc3Oc3ccc(F)cc3C(=O)N(C(C)C)C(C)C)C2)C1 (single isomer, unassigned)", 10.01],
  ["CCN(C(=O)c1cc(F)ccc1Oc1nncnc1N1CCC2(C1)CN([C@H](CCCN(C)C[C@@H](COC)OC)C(C)C)C2)C(C)C (single isomer, unassigned)", 10.21],
  ["CCN(CC)C[C@@H](O)C[C@H](C(C)C)N1CC2(CCN(c3ncnnc3Oc3ccc(F)cc3C(=O)N(CC)C(C)C)C2)C1 (single isomer, unassigned)", 8.34],
  ["CCN(C(=O)c1cc(F)ccc1Oc1nncnc1N1CCC2(C1)CN([C@H](CCCN(C)CC(C)OC)C(C)C)C2)C(C)C (single isomer, unassigned) [Compound 254, oxalate]", 8.38],
  ["CCN(C)CCC[C@H](C(C)C)N1CC2(CCN(c3ncnnc3Oc3ccc(F)cc3C(=O)N(CC)C(C)C)C2)C1 (single isomer, unassigned)", 9.96],
  ["CCN(C(=O)c1cc(F)ccc1Oc1nncnc1N1CCC2(C1)CN([C@H](CCN(C)CCC(N)=O)C(C)C)C2)C(C)C (single isomer, unassigned)", 9.70],
  ["CCN(C(=O)c1cc(F)ccc1Oc1nncnc1N1CCC2(C1)CN(C(CCCNCC(C)(C)OC)C(C)C)C2)C(C)C (stereo not shown)", 10.00],
  ["CCN(C(=O)c1cc(F)ccc1Oc1nncnc1N1CCC2(C1)CN([C@H](CCCN(C)C(C)CC(=O)N(C)C)C(C)C)C2)C(C)C (stereo partly shown) [Compound 179, fumarate]", 9.89],
  ["CCN(C(=O)c1cc(F)ccc1Oc1nncnc1N1CCC2(C1)CN([C@H](CCCN(C)C[C@@H](C)OC)C(C)C)C2)C(C)C (single isomer, unassigned)", 9.74],
  ["CCN(C(=O)c1cc(F)ccc1Oc1nncnc1N1CCC2(C1)CN([C@H](CCCNC[C@@H](O)COC)C(C)C)C2)C(C)C [Compound 281, formate]", 9.62],
  ["CCN(C(=O)c1cc(F)ccc1Oc1nncnc1N1CCC2(C1)CN([C@@H](CCN(C)C)C(C)C)C2)C(C)C (single isomer, unassigned)", 8.08],
  ["CC(C)[C@H](CCC(N)=O)N1CC2(CCN(c3ncnnc3Oc3ccc(F)cc3-c3cncnc3C3CC3)C2)C1 (single isomer, unassigned)", 7.33],
  ["CCN(C(=O)c1cc(F)ccc1Oc1nncnc1N1CCC2(C1)CN([C@H](CCN(C)CC(N)=O)C(C)C)C2)C(C)C (single isomer, unassigned)", 8.75],
  ["CCN(C(=O)c1cc(F)ccc1Oc1nncnc1N1CCC2(C1)CN([C@H](CCCNC(=O)NC)C(C)C)C2)C(C)C", 9.37],
  ["CCN(C)C[C@@H](O)C[C@@H](C(C)C)N1CC2(CCN(c3ncnnc3Oc3ccc(F)cc3C(=O)N(C(C)C)C(C)C)C2)C1 (single isomer, unassigned)", 7.99],
  ["CCN(C(=O)c1cc(F)ccc1Oc1nncnc1N1CCC2(C1)CN([C@H](CCCNCCC(F)(F)F)C(C)C)C2)C(C)C", 10.30],
  ["CCN(C)C[C@H](O)C[C@H](C(C)C)N1CC2(CCN(c3ncnnc3Oc3ccc(F)cc3C(=O)N(CC)C(C)C)C2)C1.O=C(O)/C=C/C(=O)O (single isomer, unassigned)", 10.24],
  ["CCN(C(=O)c1cc(F)ccc1Oc1nncnc1N1CCC2(C1)CN(C(CCNC(C)=O)C(C)C)C2)C(C)C (stereo not shown)", 8.62],
  ["CCN(C(=O)c1cc(F)ccc1Oc1nncnc1N1CCC2(C1)CN([C@H](CCCN(C)CC(CO)OC)C(C)C)C2)C(C)C (stereo partly shown) [Compound 170, fumarate]", 10.00]
]}

---

testTarget: menin/MLL (terbium chelate-labeled menin, FITC-MBM1 peptide) (Homo sapiens (Human), UniProt O00255)
methodSummary: Menin/MLL homogenous time-resolved fluorescence (HTRF) assay;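 note: IC50 from percent inhibition of HTRF signal, normalized between wells without competitor and wells with a saturating competitor that displaces FITC-MBM1 from His-tagged menin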
Format: binding
reportedConditions: HTRF-30 min incubation IC50, 30 min incubation
pIC50: −log10 of the molar value. Counter-ions that a name gives are not always drawn.

{"columns": ["compound", "pIC50"],
 "data": [
  ["CC(C)[C@@H](CCCN(C)C)N1CC2(CCN(c3ncnnc3Oc3ccc(F)cc3C(=O)N(C(C)C)C(C)C)C2)C1 (single isomer, unassigned) [Compound 396]", 10.10],
  ["CCN(C(=O)c1cc(F)ccc1Oc1nncnc1N1CCC2(C1)CN([C@@H](C[C@H](O)CN(C)CCOC)C(C)C)C2)C(C)C (single isomer, unassigned)", 8.38],
  ["CCN(C(=O)c1cc(F)ccc1Oc1nncnc1N1CCC2(C1)CN([C@H](CCCN(C)C(C)C)C(C)C)C2)C(C)C (single isomer, unassigned)", 10.19],
  ["CCN(C(=O)c1cc(F)ccc1Oc1nncnc1N1CCC2(C1)CN([C@@H](CCC(C)(C)N)C(C)C)C2)C(C)C (single isomer, unassigned)", 8.64],
  ["CCN(C(=O)c1cc(F)ccc1Oc1nncnc1N1CCC2(C1)CN([C@H](CCCNCC(C)(C)OC)C(C)C)C2)C(C)C [Compound 135, fumarate]", 10.24],
  ["CCN(C(=O)c1cc(F)ccc1Oc1nncnc1N1CCC2(C1)CN([C@@H](CCCCN)C(C)C)C2)C(C)C (single isomer, unassigned)", 8.25],
  ["CC(C)[C@@H](CCC(C)(C)N)N1CC2(CCN(c3ncnnc3Oc3ccc(F)cc3-c3cncnc3C3CC3)C2)C1 (single isomer, unassigned)", 9.92],
  ["CCCN(C)CCC[C@H](C(C)C)N1CC2(CCN(c3ncnnc3Oc3ccc(F)cc3C(=O)N(CC)C(C)C)C2)C1 (single isomer, unassigned)", 10.05],
  ["CCN(C(=O)c1cc(F)ccc1Oc1nncnc1N1CCC2(C1)CN([C@H](CCCN(C)CC(F)F)C(C)C)C2)C(C)C", 8.73],
  ["CCN(C(=O)c1cc(F)ccc1Oc1nncnc1N1CCC2(C1)CN([C@H](CCNCCOC)C(C)C)C2)C(C)C (single isomer, unassigned)", 9.82],
  ["CCN(C(=O)c1cc(F)ccc1Oc1nncnc1N1CCC2(C1)CN([C@@H](CCC(C)(C)N(C)C)C(C)C)C2)C(C)C (single isomer, unassigned)", 8.55]
]}

Source: patent US12473295B2
